Test system: Venturia inaequalis
Experiment Notes: Test C: apple scab disease control (apple seedlings)
Type: in vivo
Run Parameters: sprayed at 1000 to 2 ppm (rate not given per compound)
Assay Readout: disease control rating, Test C

>>> print(df.to_string())
                                   compound                   assay_readout  experimental_result
0            CCCCCCN1CCC(COCc2ccc(F)cc2)CC1  disease control rating, Test C                  16%
1   Fc1ccc(COCC2CCN(Cc3ccc4ccccc4c3)CC2)cc1  disease control rating, Test C                  68%
2   COC(=O)c1ccc(COCC2CCN(Cc3ccccc3)CC2)cc1  disease control rating, Test C                  81%
3          c1ccc(COCC2CCN(Cc3ccccc3)CC2)cc1  disease control rating, Test C                  28%
4  Fc1ccc(COCC2CCN(Cc3ccccc3)CC2)cc1 [Example 205]  disease control rating, Test C                  66%

====

A collection of compounds and their measured disease control rating, Test C
Tested on: Venturia inaequalis
Experiment Notes: Test C: apple scab disease control (apple seedlings)
Format: in vivo
Run Parameters: sprayed at 1000 to 2 ppm (rate not given per compound)
Assay Readout: disease control rating, Test C (%)

In [3]: df
Out[3]:
                                   compound                   assay_readout  unit_name  experimental_result
0  COC(=O)c1ccc(CN2CCC(COCc3ccc(F)cc3)CC2)cc1  disease control rating, Test C          %                   51
1       Fc1ccc(COCC2CCN(CCCc3ccccc3)CC2)cc1  disease control rating, Test C          %                   40
2     Fc1ccc(COCC2CCN(Cc3ccc(Cl)cc3)CC2)cc1  disease control rating, Test C          %                   93
3  Fc1ccc(COCC2CCN(Cc3ccccc3)CC2)cc1 [Example 181]  disease control rating, Test C          %                   55
4      Oc1ccc(CN2CCC(COCc3ccc(F)cc3)CC2)cc1  disease control rating, Test C          %                   86
5          Fc1ccc(COC2CCN(Cc3ccccc3)CC2)cc1  disease control rating, Test C          %                   90
6          CC(C)=CCN1CCC(COCc2ccc(F)cc2)CC1  disease control rating, Test C          %                   46
7   Fc1ccc(COCC2CCN(Cc3cccc4ccccc34)CC2)cc1  disease control rating, Test C          %                   90
8        COc1ccc(COCC2CCN(Cc3ccccc3)CC2)cc1  disease control rating, Test C          %                    0

====

Tested on: Rhizoctonia solani
Experiment Notes: Test I: rice sheath blight disease control (rice seedlings)
Format: in vivo
Run Parameters: sprayed at 1000 to 2 ppm (rate not given per compound)
Assay Readout: disease control rating, Test I (%)

                                   molecule  experimental_result
0       Fc1ccc(COCC2CCN(CCCc3ccccc3)CC2)cc1                    0
1  Fc1ccc(COCC2CCN(Cc3ccccc3)CC2)cc1 [Example 205]                    0
2          CC(C)=CCN1CCC(COCc2ccc(F)cc2)CC1                   39
3   Fc1ccc(COCC2CCN(Cc3cccc4ccccc34)CC2)cc1                    0
